Attribute: pIC50
Test system: RD cells
PROTOCOL: Cytotoxicity assay (CellTiter-Glo 2.0) on RD cells; on Cytotoxicity: test concentration or dose not given here
Type: cell-based, Human
TEST CONDITIONS: Homo sapiens, 96 h, 4 day-treatment, commercial kinase inhibitors
pIC50: −log10 of the molar value.

• CNC(=O)c1cc(Oc2ccc(NC(=O)Nc3ccc(Cl)c(C(F)(F)F)c3)c(F)c2)ccn1 [Regorafenib, reference compound] = 5.30 to 6.00

# pIC50 lookup, item COc1cc2nccc(Oc3ccc(NC(=O)Nc4cc(C)on4)c(Cl)c3)c2cc1OC [Tivozanib, reference compound]
≤ 5.00

And CNC(=O)c1cc(Oc2ccc(NC(=O)Nc3ccc(Cl)c(C(F)(F)F)c3)cc2)ccn1 [Sorafenib, reference compound] ?
5.00 to 5.30

* * *

System: RD cells
PROTOCOL: Cytotoxicity assay (CellTiter-Glo 2.0) on RD cells; on Cytotoxicity: test concentration or dose not given here
Type: cell-based, Human
TEST CONDITIONS: 4 day-treatment
QUANTITY: Cytotoxicity

* Cc1ccc(-n2nc(C(C)(C)C)cc2NC(=O)Nc2ccc(Oc3ccnc4c3CCC(=O)N4)cc2C(F)(F)F)cn1 | +++ (cytotoxicity ≥ 85%)
* CSc1cc(Oc2ccnc3c2CCC(=O)N3)ccc1NC(=O)Nc1cc(C(C)(C)C)nn1-c1ccc(CN(C)C)cc1 | +++ (cytotoxicity ≥ 85%)
* CN(C)Cc1ccc(-n2nc(C(C)(C)C)cc2NC(=O)Nc2ccc(Oc3ccnc4c3OCC(=O)N4)cc2C(F)(F)F)cc1 | +++ (cytotoxicity ≥ 85%)

* * *

System: RD cells
PROTOCOL: Cytotoxicity assay (CellTiter-Glo 2.0) on RD cells; on Cytotoxicity: test concentration or dose not given here
Assay type: cell-based, Human
TEST CONDITIONS: 2 day-treatment
QUANTITY: Cytotoxicity

- CSc1cc(Oc2ccnc3c2CCC(=O)N3)ccc1NC(=O)Nc1cc(C(C)(C)C)nn1-c1ccc(CN(C)C)cc1 [Compound 046]: +++ (cytotoxicity ≥ 85%)
- CN(C)Cc1ccc(-n2nc(C(C)(C)C)cc2NC(=O)Nc2ccc(Oc3ccnc4c3OCC(=O)N4)cc2C(F)(F)F)cc1 [Compound 049]: +++ (cytotoxicity ≥ 85%)

* * *

Tested on: RD cells
PROTOCOL: Cytotoxicity assay (CellTiter-Glo 2.0) on RD cells; on Cytotoxicity: test concentration or dose not given here
Type: cell-based, Human
TEST CONDITIONS: Homo sapiens, 48 h, 2 day-treatment, commercial kinase inhibitors
Listed here are compounds together with their documented IC50.

Examples with their reported IC50 follow.
- CNC(=O)c1cc(Oc2ccc(NC(=O)Nc3ccc(Cl)c(C(F)(F)F)c3)c(F)c2)ccn1 [Regorafenib, reference compound]: 5 to 10 µM
- COc1cc2nccc(Oc3ccc(NC(=O)Nc4cc(C)on4)c(Cl)c3)c2cc1OC [Tivozanib, reference compound]: ≥ 10 µM

Entry CNC(=O)c1cc(Oc2ccc(NC(=O)Nc3ccc(Cl)c(C(F)(F)F)c3)cc2)ccn1 [Sorafenib, reference compound] : reported IC50 = ?
≥ 10 µM

* * *

Tested on: MDA-MB-231 cells
PROTOCOL: Cytotoxicity assay (CellTiter-Glo 2.0) on MDA-MB-231 cells
Assay type: cell-based, Human
TEST CONDITIONS: Homo sapiens, 72 h, incubation 3 days, commercial kinase inhibitors
Experimental: Cytotoxicity assays consist in treating cells with compounds and assessing remaining viability after a defined incubation time, depending on the cell line. CellTiter-Glo® 2.0 reagent allows viability measurement by quantification of ATP present, which is an indicator of metabolically active cells. The cancer cell lines were cultivated in their respective growth medium (see tables 6a and 6b). […]
pIC50: −log10 of the molar value.
QUANTITY: pIC50

// solved cases for pIC50 follow
• CNC(=O)c1cc(Oc2ccc(NC(=O)Nc3ccc(Cl)c(C(F)(F)F)c3)cc2)ccn1 [Sorafenib, reference compound] = 5.00 to 5.30
• COc1cc2nccc(Oc3ccc(NC(=O)Nc4cc(C)on4)c(Cl)c3)c2cc1OC [Tivozanib, reference compound] = 5.00 to 5.30
• CNC(=O)c1cc(Oc2ccc(NC(=O)Nc3ccc(Cl)c(C(F)(F)F)c3)c(F)c2)ccn1 [Regorafenib, reference compound] = 5.30 to 6.00

# lookup: pIC50 of COc1cc2nccc(Oc3ccc(NC(=O)NC4CC4)c(Cl)c3)c2cc1C(N)=O [Lenvatinib, reference compound]
≤ 5.00

* * *

System: RD cells
PROTOCOL: Cytotoxicity assay (CellTiter-Glo 2.0) on RD cells; on Cytotoxicity: test concentration or dose not given here
Assay type: cell-based, Human
TEST CONDITIONS: Homo sapiens, 48 h, 2 day-treatment
QUANTITY: IC50

Recorded results for 5 compounds are shown here.
- CC(C)(C)c1cc(NC(=O)Nc2ccc(Oc3ccnc4c3CCC(=O)N4)cc2C(F)(F)F)no1 [Compound 024]: 1 to 5 µM
- CC(C)(C)c1cc(NC(=O)Nc2ccc(Oc3ccnc4c3CCC(=O)N4)cc2C(F)(F)F)n(-c2cccc(F)c2)n1 [Compound 015]: 5 to 10 µM
- CC(C)(C)c1cc(NC(=O)Nc2ccc(Oc3ccnc4c3OCC(=O)N4)cc2C(F)(F)F)on1 [Compound 037]: 5 to 10 µM
- CSc1cc(Oc2ccnc3c2CCC(=O)N3)ccc1NC(=O)Nc1cc(C(C)(C)C)nn1-c1cccc(CN2CCOCC2)c1 [Compound 047]: 5 to 10 µM
- CC(C)(C)c1cc(NC(=O)Nc2ccc(Oc3ccnc4c3OCC(=O)N4)cc2C(F)(F)F)n(-c2cncc(F)c2)n1 [Compound 039]: 1 to 5 µM

Find IC50 (RD cells) for the entry CSc1cc(Oc2ccnc3c2CCC(=O)N3)ccc1NC(=O)Nc1cc(C(C)(C)C)nn1-c1ccc(CN(C)C)cc1 [Compound 046]
5 to 10 µM

What do we get for CSc1cc(Oc2ccnc3c2CCC(=O)N3)ccc1NC(=O)Nc1cc(C(C)(C)C)nn1-c1cccc(CN(C)C)c1 [Compound 050] ?
1 to 5 µM

How about this compound: CSc1cc(Oc2ccnc3c2OCC(=O)N3)ccc1NC(=O)Nc1cc(C(C)(C)C)nn1-c1ccccc1 [Compound 006]
1 to 5 µM

// query: CC(C)(C)c1cc(NC(=O)Nc2ccc(Oc3ccnc4c3OCC(=O)N4)cc2C(F)(F)F)n(-c2cccc(F)c2)n1 [Compound 014]
5 to 10 µM

Param item: CSc1cc(Oc2ccnc3c2OCC(=O)N3)ccc1NC(=O)Nc1cc(C(C)(C)C)nn1-c1cccc(CN2CCOCC2)c1 [Compound 035]
1 to 5 µM

* * *

System: RD cells
PROTOCOL: Cytotoxicity assay (CellTiter-Glo 2.0) on RD cells; on Cytotoxicity: test concentration or dose not given here
Assay type: cell-based, Human
TEST CONDITIONS: 4 day-treatment
QUANTITY: Cytotoxicity

* CSc1cc(Oc2ccnc3c2OCC(=O)N3)ccc1NC(=O)Nc1cc(C(C)(C)C)nn1-c1cccc(CN(C)C)c1 [Compound 041] | +++ (cytotoxicity ≥ 85%)
* CN(C)Cc1cccc(-n2nc(C(C)(C)C)cc2NC(=O)Nc2ccc(Oc3ccnc4c3OCC(=O)N4)cc2C(F)(F)F)c1 [Compound 048] | +++ (cytotoxicity ≥ 85%)
* CN(C)Cc1ccc(-n2nc(C(C)(C)C)cc2NC(=O)Nc2ccc(Oc3ccnc4c3CCC(=O)N4)cc2C(F)(F)F)cc1 [Compound 034] | +++ (cytotoxicity ≥ 85%)

* * *

Tested on: RD cells
PROTOCOL: Cytotoxicity assay (CellTiter-Glo 2.0) on RD cells; on Cytotoxicity: test concentration or dose not given here
Format: cell-based, Human
TEST CONDITIONS: 4 day-treatment
QUANTITY: Cytotoxicity

* CSc1cc(Oc2ccnc3c2CCC(=O)N3)ccc1NC(=O)Nc1cc(C(C)(C)C)no1 [Compound 008] | +++ (cytotoxicity ≥ 85%)
* CN(C)Cc1cccc(-n2nc(C(C)(C)C)cc2NC(=O)Nc2ccc(Oc3ccnc4c3CCC(=O)N4)cc2C(F)(F)F)c1 [Compound 028] | +++ (cytotoxicity ≥ 85%)

* * *

Test system: RD cells
PROTOCOL: Cytotoxicity assay (CellTiter-Glo 2.0) on RD cells; on Cytotoxicity: test concentration or dose not given here
Assay type: cell-based, Human
TEST CONDITIONS: 2 day-treatment
QUANTITY: Cytotoxicity

• CSc1cc(Oc2ccnc3c2OCC(=O)N3)ccc1NC(=O)Nc1cc(C(C)(C)C)nn1-c1ccc(CN(C)C)cc1 = +++ (cytotoxicity ≥ 85%)
• CSc1cc(Oc2ccnc3c2OCC(=O)N3)ccc1NC(=O)Nc1cc(C(C)(C)C)nn1-c1ccc(CN2CCN(C)CC2)cc1 = +++ (cytotoxicity ≥ 85%)
• CN(C)Cc1ccc(-n2nc(C(C)(C)C)cc2NC(=O)Nc2ccc(Oc3ccnc4c3CCC(=O)N4)cc2C(F)(F)F)cc1 = +++ (cytotoxicity ≥ 85%)

* * *

System: RD cells
PROTOCOL: Cytotoxicity assay (CellTiter-Glo 2.0) on RD cells; on Cytotoxicity: test concentration or dose not given here
Format: cell-based, Human
TEST CONDITIONS: Homo sapiens, 48 h, 2 day-treatment
Method: Cytotoxicity assays consist in treating cells with compounds and assessing remaining viability after a defined incubation time, depending on the cell line. CellTiter-Glo® 2.0 reagent allows viability measurement by quantification of ATP present, which is an indicator of metabolically active cells. The cancer cell lines were cultivated in their respective growth medium (see tables 6a and 6b). […]
QUANTITY: IC50

- CSc1cc(Oc2ccnc3c2CCC(=O)N3)ccc1NC(=O)Nc1cc(C(C)(C)C)nn1-c1ccc(C)nc1 [Compound 032]: 1 to 5 µM
- CN(C)Cc1cccc(-n2nc(C(C)(C)C)cc2NC(=O)Nc2ccc(Oc3ccnc4c3OCC(=O)N4)cc2C(F)(F)F)c1 [Compound 048]: 5 to 10 µM
- CSc1cc(Oc2ccnc3c2CCC(=O)N3)ccc1NC(=O)Nc1cc(C(C)(C)C)nn1-c1ccccc1 [Compound 001]: 1 to 5 µM

// query IC50 value for entry CN(C)Cc1ccc(-n2nc(C(C)(C)C)cc2NC(=O)Nc2ccc(Oc3ccnc4c3OCC(=O)N4)cc2C(F)(F)F)cc1 [Compound 049]
5 to 10 µM
